measured.on: AVP1 (Arabidopsis thaliana, UniProt P31414)
Construct: InvGFPAVP1: N-terminal signal peptide of yeast Suc2p + yEGFP + AVP1; stripped microsomal membranes of S. cerevisiae YPC6; homodimer
Sequence (P31414 whole entry): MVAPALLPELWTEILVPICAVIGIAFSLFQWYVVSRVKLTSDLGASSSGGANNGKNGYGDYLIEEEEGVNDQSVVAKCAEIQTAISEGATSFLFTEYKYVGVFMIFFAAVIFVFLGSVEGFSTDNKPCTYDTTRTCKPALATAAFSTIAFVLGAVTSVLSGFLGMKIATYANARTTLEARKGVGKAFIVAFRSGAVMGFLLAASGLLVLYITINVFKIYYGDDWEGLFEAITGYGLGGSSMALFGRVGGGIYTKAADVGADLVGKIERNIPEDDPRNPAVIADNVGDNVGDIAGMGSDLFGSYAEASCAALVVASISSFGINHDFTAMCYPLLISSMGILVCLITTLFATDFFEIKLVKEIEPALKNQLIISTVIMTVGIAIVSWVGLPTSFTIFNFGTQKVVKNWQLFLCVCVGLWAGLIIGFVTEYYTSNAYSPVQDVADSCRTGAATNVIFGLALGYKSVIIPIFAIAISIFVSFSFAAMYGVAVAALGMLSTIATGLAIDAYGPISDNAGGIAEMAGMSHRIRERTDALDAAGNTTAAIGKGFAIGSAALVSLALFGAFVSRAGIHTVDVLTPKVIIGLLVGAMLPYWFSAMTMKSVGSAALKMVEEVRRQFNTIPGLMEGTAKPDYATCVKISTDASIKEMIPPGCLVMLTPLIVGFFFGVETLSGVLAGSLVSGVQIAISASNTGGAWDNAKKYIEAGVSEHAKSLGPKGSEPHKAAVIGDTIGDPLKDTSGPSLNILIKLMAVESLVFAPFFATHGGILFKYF
method: colorimetric orthophosphate release; fit of MWC-derived Equation […]
measurement.context: read-out: KR
experimental.readout: Kd (µM)

>>> endpoint_value("O=P(O)(O)OP(=O)(O)O [Mg2PPi]")
84

---

measured.on: MVP (Methanosarcina mazei)
Construct: InvGFPMVP: N-terminal signal peptide of yeast Suc2p + yEGFP + MVP; stripped microsomal membranes of S. cerevisiae YPC6; homodimer
Sequence (Q8PYZ8 whole entry): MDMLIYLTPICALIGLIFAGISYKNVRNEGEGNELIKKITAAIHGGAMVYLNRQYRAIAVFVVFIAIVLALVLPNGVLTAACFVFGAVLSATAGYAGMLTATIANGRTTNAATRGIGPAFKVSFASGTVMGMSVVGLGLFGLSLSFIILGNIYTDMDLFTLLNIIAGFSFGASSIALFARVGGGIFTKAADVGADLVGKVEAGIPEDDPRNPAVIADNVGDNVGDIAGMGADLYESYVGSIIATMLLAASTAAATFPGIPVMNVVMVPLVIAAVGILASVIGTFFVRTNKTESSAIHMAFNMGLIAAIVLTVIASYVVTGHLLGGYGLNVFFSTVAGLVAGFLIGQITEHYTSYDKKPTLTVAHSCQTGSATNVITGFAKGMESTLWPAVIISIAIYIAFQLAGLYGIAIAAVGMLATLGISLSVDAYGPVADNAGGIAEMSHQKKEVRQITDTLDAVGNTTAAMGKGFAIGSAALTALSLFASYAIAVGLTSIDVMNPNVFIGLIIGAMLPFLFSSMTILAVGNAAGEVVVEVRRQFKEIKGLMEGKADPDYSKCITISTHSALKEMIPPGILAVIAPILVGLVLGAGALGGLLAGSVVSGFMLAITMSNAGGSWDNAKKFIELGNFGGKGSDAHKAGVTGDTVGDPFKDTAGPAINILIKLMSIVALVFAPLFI
method: colorimetric orthophosphate release; fit of MWC-derived Equation […]
measurement.context: read-out: KR
pKd: −log10 of the molar value.
experimental.readout: pKd

>>> endpoint_value("O=P(O)(O)OP(=O)(O)O")
4.21
